B1: FBXO33 (parent)
chain: RLRGLLRVLRGRPGAGSRRRGRMA

- Variants of: B1
- assay.overview: protein stability index of a GFP-peptide fusion (GPS, HEK-293T) (PSI 1-6); higher = more stable;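 also: lentivirally expressed fusions sorted by FACS into six bins by GFP to DsRed ratio, PSI derived from sequencing read proportions per bin multiplied by bin number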
- conditions.used: c terminus: a fixed tail appended
assay.metric: protein stability index

- mutant.designation: "L6T"
  assay.metric: "protein stability index"
  reading: 4.48
- mutant.designation: "A15G"
  assay.metric: "protein stability index"
  reading: 1.54
- mutant.designation: "L2F"
  assay.metric: "protein stability index"
  reading: 2.1
- mutant.designation: "G4H"
  assay.metric: "protein stability index"
  reading: 1.29
- mutant.designation: "P13H"
  assay.metric: "protein stability index"
  reading: 1.77
- mutant.designation: "G16P"
  assay.metric: "protein stability index"
  reading: 2.06
- mutant.designation: "L5D"
  assay.metric: "protein stability index"
  reading: 4.05
- mutant.designation: "G16N"
  assay.metric: "protein stability index"
  reading: 2.57
- mutant.designation: "L5S"
  assay.metric: "protein stability index"
  reading: 4.64
- mutant.designation: "R7N"
  assay.metric: "protein stability index"
  reading: 2.35

Reference source: the supplement of paper PMC10567573
